Measured pIC50, listed per entry for reference.
- Target Or System: full length human TREX1 (Homo sapiens)
- Construct: N-terminally His-Tev tagged full length human TREX1; made in house; host or cells: E. coli
- Sequence (Q9NSU2 1-314): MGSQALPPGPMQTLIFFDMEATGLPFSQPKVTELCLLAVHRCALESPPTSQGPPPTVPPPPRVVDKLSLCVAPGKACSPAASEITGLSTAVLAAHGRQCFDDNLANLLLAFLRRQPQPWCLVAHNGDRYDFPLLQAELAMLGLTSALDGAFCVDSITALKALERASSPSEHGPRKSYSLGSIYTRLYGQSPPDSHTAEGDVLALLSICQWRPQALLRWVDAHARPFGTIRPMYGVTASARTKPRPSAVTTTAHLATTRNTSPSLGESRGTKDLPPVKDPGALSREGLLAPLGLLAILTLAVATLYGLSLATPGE
- Assay Info: hTREX1 Biochemical Assay (fluorescence, dsDNA substrate degradation)
- Settings: biochemical, read-out: hTREX1 IC50
- Method: Degradation of the dsDNA liberates free fluorophore to produce a fluorescent signal. Specifically, 7.5 μL of N-terminally His-Tev tagged full length human TREX1 (expressed in E. coli and purified in house) in reaction buffer (50 mM Tris, 150 mM NaCl, 2 mM DTT, 0.1 mg/mL BSA, 0.01% (w/v) Tween-20, 5 mM MgCl2, pH 7.4) was added to a 384-well Black ProxiPlate Plus (PerkinElmer) which already contained compound (150 nL) at varying concentrations as a 10 point dose-response in DMSO. […]
pIC50: −log10 of the molar value.
Metric: pIC50

- Molecule: "Cc1cc(C(c2cc(F)ccc2C#N)C(C)c2nc(C(=O)Nc3cnoc3)c(O)c(=O)n2C)n(C)n1 (single isomer, unassigned) [Example 111 D1E2]"
  Recorded Measurement: "> 9.00"
- Molecule: "CC(c1nc(C(=O)Nc2cnoc2)c(O)c(=O)n1C)C(c1cnn(CC(F)(F)F)c1)c1ccccc1C#N (single isomer, unassigned) [Example 22 D1E2]"
  Recorded Measurement: "< 8.00"
- Molecule: "Cc1nn(C)c(C)c1C(c1ccccc1C#N)C(C)c1nc(C(=O)Nc2cnoc2)c(O)c(=O)n1C (single isomer, unassigned) [Example 78 D2E1]"
  Recorded Measurement: "8.00 to 9.00"
- Molecule: "Cc1nn(C)cc1C(c1ccccc1C#N)C(C)c1nc(C(=O)Nc2cnoc2)c(O)c(=O)n1C (single isomer, unassigned) [Example 3 D2E1]"
  Recorded Measurement: "< 8.00"
- Molecule: "CC(c1nc(C(=O)Nc2cnoc2)c(O)c(=O)n1C)C(c1ccccc1Cl)c1nncn1C (single isomer, unassigned) [Example 152 D2E1]"
  Recorded Measurement: "< 8.00"
- Molecule: "CC(c1nc(C(=O)Nc2cnoc2)c(O)c(=O)n1C)C(c1ccccc1Cl)c1cn(C)nc1F (single isomer, unassigned) [Example 130 D1E1]"
  Recorded Measurement: "> 9.00"
- Molecule: "CC(c1nc(C(=O)Nc2cnoc2)c(O)c(=O)n1C)C(c1cnn(C)c1)c1ccc(C(F)(F)F)cc1C#N (single isomer, unassigned) [Example 30 D1E1]"
  Recorded Measurement: "> 9.00"
- Molecule: "CC(c1nc(C(=O)Nc2cnoc2)c(O)c(=O)n1C)C(c1ccccc1Cl)n1nccc1C(N)=O (single isomer, unassigned) [Example 147 D1E2]"
  Recorded Measurement: "< 8.00"
- Molecule: "Cc1ccn(C(c2cc(F)ccc2Cl)C(C)c2nc(C(=O)Nc3cnoc3)c(O)c(=O)n2C)n1 (single isomer, unassigned) [Example 146 D1E1]"
  Recorded Measurement: "8.00 to 9.00"
- Molecule: "Cc1ncc(C(c2cc(F)ccc2C#N)C(C)c2nc(C(=O)Nc3cnoc3)c(O)c(=O)n2C)nc1C (single isomer, unassigned) [Example 124 D2E2]"
  Recorded Measurement: "< 8.00"
- Molecule: "Cc1nn(C)c(C)c1C(c1cc(F)ccc1Cl)C(C)c1nc(C(=O)Nc2cnoc2)c(O)c(=O)n1C (single isomer, unassigned) [Example 154 D1E1]"
  Recorded Measurement: "> 9.00"
- Molecule: "CC(c1nc(C(=O)Nc2cnoc2)c(O)c(=O)n1C)C(c1cnn(CCCN(C)C)c1)c1ccccc1C#N (single isomer, unassigned) [Example 34 D1E2]"
  Recorded Measurement: "< 8.00"
- Molecule: "Cc1cnc(C(c2ccccc2Cl)C(C)c2nc(C(=O)Nc3cnoc3)c(O)c(=O)n2C)cn1 (single isomer, unassigned) [Example 116 D1E2]"
  Recorded Measurement: "> 9.00"
- Molecule: "CC(c1nc(C(=O)Nc2cnoc2)c(O)c(=O)n1C)C(c1ccccc1Cl)n1cc(C(F)(F)F)cn1 (single isomer, unassigned) [Example 139 D1E1]"
  Recorded Measurement: "8.00 to 9.00"
